Attribution: patent US20130137631A1

Target: T1, human GIP receptor (human), P48546
T1 chain: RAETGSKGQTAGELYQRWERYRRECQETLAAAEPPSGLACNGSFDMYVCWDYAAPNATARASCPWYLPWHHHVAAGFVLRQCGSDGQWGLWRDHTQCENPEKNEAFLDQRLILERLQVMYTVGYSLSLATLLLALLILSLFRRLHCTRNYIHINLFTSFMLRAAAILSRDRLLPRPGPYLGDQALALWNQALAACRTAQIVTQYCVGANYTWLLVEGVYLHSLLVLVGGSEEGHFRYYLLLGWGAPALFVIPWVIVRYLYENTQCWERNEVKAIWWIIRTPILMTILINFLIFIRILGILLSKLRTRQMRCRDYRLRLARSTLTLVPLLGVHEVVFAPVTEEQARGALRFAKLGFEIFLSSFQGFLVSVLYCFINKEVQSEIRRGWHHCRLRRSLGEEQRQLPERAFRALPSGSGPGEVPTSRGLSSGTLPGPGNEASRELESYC
Assay: 125I-GIP displacement, HEK-GIPR membranes
Each entry below lists one item and its recorded % Inh 10 nM value.
Just the number please, in %, no unit attached.

In [3]: df
Out[3]:
                                     binder  measurement_name  value_measured
0  YAEGTFISDYSIAMDKIHQQDFVNWLLAQKPKQIRYS (modifications not checked) [0601GIP4854]       % Inh 10 nM            93.5

-- ask Which % Inh 10 nM value belongs to YAEGTFISDYSIAMDKIHQQDFVNWLLAQKPKKQRYS (modifications not checked) [0601GIP4914] ?
-- reply 96.3

-- ask And for YAEGTFISDYSIAMDKIHQQDFVNQLLAQKPKKIRYS (modifications not checked) [0601GIP4845] ?
-- reply 69.5

-- ask Further, for YAEGTFISDYSIAMDKIHQQDFVNWLLAQKPQKIRYS (modifications not checked) [0601GIP4853] ?
-- reply 91
